Each entry below carries its reported MIC50.
System: Fusarium solani
Test: Antimicrobial activity against Fusarium solani by broth microdilution method
Format: functional
*1 amine or outer side, *2 acyl side, *3 side chain or, on linkers, in order; H or OH if unused. Where a SMILES comes first, the peptide text is derived from it. Bridges are numbered along the chain shown (N, C = ends). [ ]: non-standard residue; d: D form. The star is where a group is joined. pTerphenylCO(4''-OnC5H11) = CCCCCOc1ccc(-c2ccc(-c3ccc(C(=O)*)cc3)cc2)cc1; Orn(4R-OH,5R-OH) = O=C([C@H](C[C@@H](O)[C@@H](O)N[*:3])N[*:1])[*:2]; hTyr(3S-OH,4S-OH) = N[C@H](C(=O)O)[C@H](O)[C@@H](O)c1ccc(O)cc1; Pro(3S-OH,4S-Me) = C[C@H]1CN[C@H](C(=O)O)[C@H]1O; Hyp = O=C(O)[C@@H]1C[C@@H](O)CN1

{"molecule": "CCCCCOc1ccc(-c2ccc(-c3ccc(C(=O)N[C@H]4C[C@@H](O)[C@@H](O)NC(=O)[C@@H]5[C@@H](O)[C@@H](C)CN5C(=O)[C@H]([C@@H](C)O)NC(=O)[C@H]([C@H](O)[C@@H](O)c5ccc(O)cc5)NC(=O)[C@@H]5C[C@@H](O)CN5C(=O)[C@H]([C@@H](C)O)NC4=O)cc3)cc2)cc1 [ANIDULAFUNGIN] ({pTerphenylCO(4''-OnC5H11)}-[Orn(4R-OH,5R-OH)]T[Hyp][hTyr(3S-OH,4S-OH)]T[Pro(3S-OH,4S-Me)]; lactam 1-C)", "MIC50": "> 16 µg/mL"}
{"molecule": "CC[C@H](C)C[C@H](C)CCCCCCCCC(=O)N[C@H]1C[C@@H](O)[C@@H](NCCN)NC(=O)[C@@H]2[C@@H](O)CCN2C(=O)[C@H]([C@H](O)CCN)NC(=O)[C@H]([C@H](O)[C@@H](O)c2ccc(O)cc2)NC(=O)[C@@H]2C[C@@H](O)CN2C(=O)[C@H]([C@@H](C)O)NC1=O [CASPOFUNGIN]", "MIC50": "> 16 µg/mL"}
